Molecular target: Homoisocitrate dehydrogenase, mitochondrial (Saccharomyces cerevisiae S288c) (UniProt P40495)
Sequence (P40495 whole entry): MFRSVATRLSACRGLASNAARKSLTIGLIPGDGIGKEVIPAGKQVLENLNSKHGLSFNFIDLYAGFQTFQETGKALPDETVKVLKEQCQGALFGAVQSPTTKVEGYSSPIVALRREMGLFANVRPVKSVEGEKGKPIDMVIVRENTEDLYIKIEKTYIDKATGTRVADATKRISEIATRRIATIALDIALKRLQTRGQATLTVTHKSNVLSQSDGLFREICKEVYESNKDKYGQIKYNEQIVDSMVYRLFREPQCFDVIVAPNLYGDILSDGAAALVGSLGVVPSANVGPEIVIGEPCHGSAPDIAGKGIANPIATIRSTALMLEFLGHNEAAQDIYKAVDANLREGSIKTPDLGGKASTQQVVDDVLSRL
Assay: Activity of recombinant Saccharomyces cerevisiae homoisocitrate dehydrogenase expressed in Escherichia coli Rosetta cells above 10 mM
Activity calls are given as the source filed them. The rule behind the calls is not given here.
parameter-measured: Activity

[
  {
    "chem-smiles": "O=C(O)C[C@@H](O)C(=O)O",
    "reported-result": "inactive"
  },
  {
    "chem-smiles": "CC(C)[C@H](C(=O)O)[C@@H](O)C(=O)O",
    "reported-result": "inactive"
  },
  {
    "chem-smiles": "O=C(O)C[C@H](C(=O)O)[C@@H](O)C(=O)O",
    "reported-result": "inactive"
  },
  {
    "chem-smiles": "O=C(O)[C@H](O)[C@@H](C(=O)O)c1ccccc1",
    "reported-result": "inactive"
  },
  {
    "chem-smiles": "O=C(O)[C@@H](O)[C@@H](O)C(=O)O",
    "reported-result": "inactive"
  }
]

Now for another entry.
Identify the reported Activity for the following entry. NCCC[C@H](C(=O)O)[C@@H](O)C(=O)O
inactive

* * *

Tested on: Deinococcus radiodurans
Assay: Ratio of kcat/km of Deinococcus radiodurans homoisocitrate dehydrogenase
parameter-measured: kcat/Km (M⁻¹ s⁻¹)

[
  {
    "chem-smiles": "O=C(O)[C@@H](CCCO)[C@@H](O)C(=O)O",
    "units-symbol": "M⁻¹ s⁻¹",
    "kcat/Km": 200000
  },
  {
    "chem-smiles": "C=C[C@H](C(=O)O)[C@@H](O)C(=O)O",
    "units-symbol": "M⁻¹ s⁻¹",
    "kcat/Km": 9300
  },
  {
    "chem-smiles": "O=C(O)[C@@H](CCCCO)[C@@H](O)C(=O)O",
    "units-symbol": "M⁻¹ s⁻¹",
    "kcat/Km": 60000
  },
  {
    "chem-smiles": "C=CC[C@H](C(=O)O)[C@@H](O)C(=O)O",
    "units-symbol": "M⁻¹ s⁻¹",
    "kcat/Km": 13000
  },
  {
    "chem-smiles": "CCC[C@H](C(=O)O)[C@@H](O)C(=O)O",
    "units-symbol": "M⁻¹ s⁻¹",
    "kcat/Km": 68000
  }
]

a = C=CCCC[C@H](C(=O)O)[C@@H](O)C(=O)O
b = CC[C@H](C(=O)O)[C@@H](O)C(=O)O
Of a and b , whose reported kcat/Km is numerically smaller? I would appreciate it if you answered with the label of your choice.
a

* * *

Tested on: Deinococcus radiodurans
Experiment: Activity of Deinococcus radiodurans homoisocitrate dehydrogenase
parameter-measured: Km (µM)

[
  {
    "chem-smiles": "O=C(O)[C@@H](CCO)[C@@H](O)C(=O)O",
    "Km (µM)": 590
  },
  {
    "chem-smiles": "C=CC[C@H](C(=O)O)[C@@H](O)C(=O)O",
    "Km (µM)": 2800
  },
  {
    "chem-smiles": "C=CCCC[C@H](C(=O)O)[C@@H](O)C(=O)O",
    "Km (µM)": 2700
  },
  {
    "chem-smiles": "O=C(O)[C@@H](CCCCO)[C@@H](O)C(=O)O",
    "Km (µM)": 470
  },
  {
    "chem-smiles": "CC[C@H](C(=O)O)[C@@H](O)C(=O)O",
    "Km (µM)": 1000
  }
]

a = C[C@H](C(=O)O)[C@@H](O)C(=O)O
b = CCC[C@H](C(=O)O)[C@@H](O)C(=O)O
Of a and b , whose reported Km is numerically smaller? I would appreciate it if you answered with the label of your choice.
b

1 = O=C(O)CCC[C@H](C(=O)O)[C@@H](O)C(=O)O
2 = O=C(O)CCCC[C@H](C(=O)O)[C@@H](O)C(=O)O
3 = CCCCC[C@H](C(=O)O)[C@@H](O)C(=O)O
Rank the 3 compounds: largest Km first, smallest last. Please write the labels in the order that was asked for.
3, 1, 2

P = C=C[C@H](C(=O)O)[C@@H](O)C(=O)O
Q = O=C(O)[C@@H](CCCO)[C@@H](O)C(=O)O
Which numeric Km is bigger, that of P or that of Q ? I would appreciate it if you answered with the label of your choice.
Q
(Q: 510 µM, P: 83 µM)
